Listing: % Inhibition of selected compounds
# assayed_system: ESb mouse lymphoma heparanase (Mus musculus)
# Construct: endogenous in cells; host or cells: ESb mouse lymphoma cells
# Sequence (Q6YGZ1 150-535 limits assumed): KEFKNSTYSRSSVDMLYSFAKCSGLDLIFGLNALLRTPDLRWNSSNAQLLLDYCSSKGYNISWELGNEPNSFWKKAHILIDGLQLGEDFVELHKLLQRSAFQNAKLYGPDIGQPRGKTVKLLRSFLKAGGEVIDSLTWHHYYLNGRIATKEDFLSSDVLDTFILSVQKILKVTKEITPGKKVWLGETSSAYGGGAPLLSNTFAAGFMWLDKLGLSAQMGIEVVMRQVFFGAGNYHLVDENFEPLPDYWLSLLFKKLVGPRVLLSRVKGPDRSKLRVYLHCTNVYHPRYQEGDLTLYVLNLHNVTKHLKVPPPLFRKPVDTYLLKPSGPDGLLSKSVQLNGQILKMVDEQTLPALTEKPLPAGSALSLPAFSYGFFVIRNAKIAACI
# Sequence (Q6YGZ1 28-101 limits assumed): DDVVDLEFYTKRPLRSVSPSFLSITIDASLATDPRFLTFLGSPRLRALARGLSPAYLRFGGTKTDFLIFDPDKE
# test_protocol: Inhibition of heparanase degradation of 35S-labelled ECM
# Assay type: biochemical
# test_settings: 10 µgr/ml, 24 hours
Numbers only; they are read as %.

INSERT INTO measurements (line_notation, measured_quantity, measured_value) VALUES
  ('O=C(O)C1=CC(=C(c2ccc(O)c(C(=O)O)c2)c2ccc(O)c(C(=O)O)c2)C=CC1=O', '% Inhibition', 78),
  ('CCN(Cc1cccc(S(=O)(=O)O)c1)c1ccc(C(=C2C=CC(=[N+](CC)Cc3cccc(S(=O)(=O)O)c3)C=C2)c2ccc(O)cc2S(=O)(=O)[O-])cc1', '% Inhibition', 32),
  ('O=S(=O)(O)c1ccc(N=C2C=CC(=C(c3ccc(Nc4ccc(S(=O)(=O)O)cc4)cc3)c3ccc(Nc4ccc(S(=O)(=O)O)cc4)cc3)C=C2)cc1', '% Inhibition', 23);

[Q] Given the entry `Cc1cc(-c2ccc(/N=N/c3ccc4c(S(=O)(=O)[O-])cc(S(=O)(=O)[O-])c(N)c4c3O)c(C)c2)ccc1/N=N/c1ccc2c(S(=O)(=O)[O-])cc(S(=O)(=O)[O-])c(N)c2c1O.[Na+].[Na+].[Na+].[Na+]` , report its measured % Inhibition.
[A] 60

Entry source: patent EP0354714A2
